# test_name: Brain and plasma concentrations in mice after intraperitoneal administration (LC-MS-MS), non-compartmental analysis
# Assay type: in vivo
# study_conditions: male, Swiss-Webster, mouse, brain, ip, 10 mg/kg, 10 mg kg^-1 i.p., mice; read-out: Terminal half-life in brain (converted)
metric: half-life

Prompt: Item "CC(C)[C@@H](CN1CC[C@@](C)(c2cccc(O)c2)[C@@H](C)C1)NC(=O)[C@H]1Cc2ccc(O)cc2CN1" has what recorded half-life?
Completion: ~216 h

* * *

# test_name: Brain and plasma concentrations in mice after intraperitoneal administration (LC-MS-MS), non-compartmental analysis
# Assay type: in vivo
# study_conditions: male, Swiss-Webster, mouse, brain, ip, 10 mg/kg, 2 h, 10 mg/kg i.p.; <MRC substituted by MRC/2; read-out: mean (brain)
# Procedure: Doses are reported by weight of the specified salt. […] Body mass was measured to ±0.1 g. Mice were sacrificed by cervical dislocation, then decapitated for collection of brain and blood samples. […] Drug concentrations (ng mL^-1) refer to the free base, and were measured by liquid chromatography-tandem mass spectrometry (LC-MS-MS) as described previously. […] Compounds were detected in positive ion mode, tuned to the mass transition with the largest intensity. […]
Please provide measured concentration at 2 h for the entries that follow.
Numeric only. Scale: ng/g

Prompt: Item "CC(C)[C@@H](CN1CC[C@@](C)(c2cccc(O)c2)[C@@H](C)C1)NC(=O)[C@H]1Cc2ccc(O)cc2CN1" has what recorded concentration at 2 h?
Completion: 38.4

Prompt: Item "Oc1ccc2c3c1O[C@H]1c4[nH]c5c(c4C[C@@]4(O)[C@@H](C2)N(CC2CC2)CC[C@]314)C[C@@]1(O)[C@H]2Cc3ccc(O)c4c3[C@@]1(CCN2CC1CC1)[C@H]5O4" has what recorded concentration at 2 h?
Completion: 96

* * *

Please provide measured logD for the entries that follow.
# test_name: Octanol-buffer distribution (log D7.4)
# Assay type: physicochemical
# study_conditions: 1-octanol/PBS, pH 7.4; pooled mixing times 1, 10, 30 min
Lab note: record the figure alone, no unit after it.

Prompt: Item O=C1CC[C@@]2(O)[C@H]3Cc4ccc(O)c5c4[C@@]2(CCN3CC2CC2)[C@H]1O5 [Naltrexone, naltrexone] has what recorded logD?
Completion: 0.86

Prompt: Item N=C(N)Nc1ccc2[nH]c3c(c2c1)C[C@@]1(O)[C@H]2Cc4ccc(O)c5c4[C@@]1(CCN2CC1CC1)[C@H]3O5 [GNTI, 5’-guanidinonaltrindole] has what recorded logD?
Completion: -0.08

Prompt: Item CC(C)[C@@H](CN1CC[C@@](C)(c2cccc(O)c2)[C@@H](C)C1)NC(=O)[C@H]1Cc2ccc(O)cc2CN1 [JDTic] has what recorded logD?
Completion: 1.84

Prompt: Item Oc1ccc2c3c1O[C@H]1c4[nH]c5c(c4C[C@@]4(O)[C@@H](C2)N(CC2CC2)CC[C@]314)C[C@@]1(O)[C@H]2Cc3ccc(O)c4c3[C@@]1(CCN2CC1CC1)[C@H]5O4 [nor-BNI, norbinaltorphimine] has what recorded logD?
Completion: 1.53

* * *

# test_name: Brain and plasma concentrations in mice after intraperitoneal administration (LC-MS-MS), non-compartmental analysis
# Format: in vivo
# study_conditions: male, Swiss-Webster, mouse, ip; plasma; 10 mg kg^-1 i.p., mice; read-out: C max,p
# Protocol: Doses are reported by weight of the specified salt. […] Body mass was measured to ±0.1 g. Mice were sacrificed by cervical dislocation, then decapitated for collection of brain and blood samples. […] Drug concentrations (ng mL^-1) refer to the free base, and were measured by liquid chromatography-tandem mass spectrometry (LC-MS-MS) as described previously. […] Compounds were detected in positive ion mode, tuned to the mass transition with the largest intensity. […]
Please provide measured Cmax for the entries that follow.
Numeric only. Scale: ng/mL

Prompt: Item "N=C(N)Nc1ccc2[nH]c3c(c2c1)C[C@@]1(O)[C@H]2Cc4ccc(O)c5c4[C@@]1(CCN2CC1CC1)[C@H]3O5" has what recorded Cmax?
Completion: 3080

Prompt: Item "Oc1ccc2c3c1O[C@H]1c4[nH]c5c(c4C[C@@]4(O)[C@@H](C2)N(CC2CC2)CC[C@]314)C[C@@]1(O)[C@H]2Cc3ccc(O)c4c3[C@@]1(CCN2CC1CC1)[C@H]5O4" has what recorded Cmax?
Completion: 4020

Prompt: Item "CC(C)[C@@H](CN1CC[C@@](C)(c2cccc(O)c2)[C@@H](C)C1)NC(=O)[C@H]1Cc2ccc(O)cc2CN1" has what recorded Cmax?
Completion: 245

* * *

# test_name: Brain and plasma concentrations in mice after intraperitoneal administration (LC-MS-MS), non-compartmental analysis
# Format: in vivo
# study_conditions: male, Swiss-Webster, mouse, brain, ip, 10 mg/kg, 0.5 h, 10 mg/kg i.p.; read-out: mean (brain)
metric: concentration at 0.5 h (ng/g)
Numeric only. Scale: ng/g

Prompt: Item "Oc1ccc2c3c1O[C@H]1c4[nH]c5c(c4C[C@@]4(O)[C@@H](C2)N(CC2CC2)CC[C@]314)C[C@@]1(O)[C@H]2Cc3ccc(O)c4c3[C@@]1(CCN2CC1CC1)[C@H]5O4" has what recorded concentration at 0.5 h?
Completion: 443

Prompt: Item "CC(C)[C@@H](CN1CC[C@@](C)(c2cccc(O)c2)[C@@H](C)C1)NC(=O)[C@H]1Cc2ccc(O)cc2CN1" has what recorded concentration at 0.5 h?
Completion: 71.1

* * *

# test_name: Brain and plasma concentrations in mice after intraperitoneal administration (LC-MS-MS), non-compartmental analysis
# Assay type: in vivo
# study_conditions: male, Swiss-Webster (Crl:CFW(SW)), mouse, brain, intraperitoneal, 10 mg/kg, 48 h, 10 mg/kg; read-out: Conc (brain, NCA input)
# Method: Doses are reported by weight of the specified salt. […] Body mass was measured to ±0.1 g. Mice were sacrificed by cervical dislocation, then decapitated for collection of brain and blood samples. […] Drug concentrations (ng mL^-1) refer to the free base, and were measured by liquid chromatography-tandem mass spectrometry (LC-MS-MS) as described previously. […] Compounds were detected in positive ion mode, tuned to the mass transition with the largest intensity. […]
metric: concentration at 48 h (ng/mL)
Numeric only. Scale: ng/mL

Prompt: Item "CC(C)[C@@H](CN1CC[C@@](C)(c2cccc(O)c2)[C@@H](C)C1)NC(=O)[C@H]1Cc2ccc(O)cc2CN1" has what recorded concentration at 48 h?
Completion: 24.7

* * *

# test_name: Octanol-buffer distribution (log D7.4)
# Assay type: physicochemical
# study_conditions: 1-octanol/PBS; mixing time 1 min, octanol/PBS pH 7.4
# Protocol: Phosphate-buffered saline (PBS, pH 7.4) and 1-octanol were mutually saturated by vigorous stirring at room temperature for 18 h, and then separated. […] Drug concentrations (ng mL^-1) refer to the free base, and were measured by liquid chromatography-tandem mass spectrometry (LC-MS-MS) as described previously. […] Compounds were detected in positive ion mode, tuned to the mass transition with the largest intensity. […]
Please provide measured logD at 1 min for the entries that follow.
Lab note: record the figure alone, no unit after it.

Prompt: Item O=C1CC[C@@]2(O)[C@H]3Cc4ccc(O)c5c4[C@@]2(CCN3CC2CC2)[C@H]1O5 [Naltrexone, naltrexone] has what recorded logD at 1 min?
Completion: 0.85

Prompt: Item "Oc1ccc2c3c1O[C@H]1c4[nH]c5c(c4C[C@@]4(O)[C@@H](C2)N(CC2CC2)CC[C@]314)C[C@@]1(O)[C@H]2Cc3ccc(O)c4c3[C@@]1(CCN2CC1CC1)[C@H]5O4" has what recorded logD at 1 min?
Completion: 1.43

Prompt: Item "CC(C)[C@@H](CN1CC[C@@](C)(c2cccc(O)c2)[C@@H](C)C1)NC(=O)[C@H]1Cc2ccc(O)cc2CN1" has what recorded logD at 1 min?
Completion: 1.84

Prompt: Item "N=C(N)Nc1ccc2[nH]c3c(c2c1)C[C@@]1(O)[C@H]2Cc4ccc(O)c5c4[C@@]1(CCN2CC1CC1)[C@H]3O5" has what recorded logD at 1 min?
Completion: -0.07

* * *

# test_name: Brain homogenate binding (unbound fraction by ultracentrifugation)
# Type: in vitro ADME
# study_conditions: assumed at least 3-fold lower than in homogenate, read-out: Fu,brain (in vivo est.)
# Procedure: Unbound fractions in brain homogenate and plasma were determined by ultracentrifugation as described previously. Briefly, drug-spiked matrices (5 μM drug in plasma or brain homogenate) were centrifuged at 600,000 g for 5 h at 37 °C (plasma) or 5 °C (brain). […] Extracts were centrifuged and analyzed by LC-MS-MS. Fraction unbound was calculated from the ratio of concentration in the water layer to that in the original spiked matrix, corrected for dilution as described previously. […]
metric: fraction unbound at 5 h, 5 μM

Prompt: Item "CC(C)[C@@H](CN1CC[C@@](C)(c2cccc(O)c2)[C@@H](C)C1)NC(=O)[C@H]1Cc2ccc(O)cc2CN1" has what recorded fraction unbound at 5 h, 5 μM?
Completion: < 0.0233

* * *

Please provide measured fraction unbound at 5 h, 5 μM for the entries that follow.
# test_name: Plasma binding (unbound fraction by ultracentrifugation)
# Format: in vitro ADME
# study_conditions: 5 μM drug, mean, n = 3
Lab note: record the figure alone, no unit after it.

Prompt: Item Oc1ccc2c3c1O[C@H]1c4[nH]c5c(c4C[C@@]4(O)[C@@H](C2)N(CC2CC2)CC[C@]314)C[C@@]1(O)[C@H]2Cc3ccc(O)c4c3[C@@]1(CCN2CC1CC1)[C@H]5O4 [nor-BNI, norbinaltorphimine] has what recorded fraction unbound at 5 h, 5 μM?
Completion: 0.51

Prompt: Item O=C1CC[C@@]2(O)[C@H]3Cc4ccc(O)c5c4[C@@]2(CCN3CC2CC2)[C@H]1O5 [Naltrexone, naltrexone] has what recorded fraction unbound at 5 h, 5 μM?
Completion: 0.83

Prompt: Item CC(C)[C@@H](CN1CC[C@@](C)(c2cccc(O)c2)[C@@H](C)C1)NC(=O)[C@H]1Cc2ccc(O)cc2CN1 [JDTic] has what recorded fraction unbound at 5 h, 5 μM?
Completion: 0.19

Prompt: Item N=C(N)Nc1ccc2[nH]c3c(c2c1)C[C@@]1(O)[C@H]2Cc4ccc(O)c5c4[C@@]1(CCN2CC1CC1)[C@H]3O5 [GNTI, 5’-guanidinonaltrindole] has what recorded fraction unbound at 5 h, 5 μM?
Completion: 0.28
